Each entry below carries its recorded melting point.

mol: O=C(Nc1nc(C2(c3ccccc3)CC2)no1)c1ccc(O[C@H]2CC[C@@H](C(=O)O)CC2)cc1
melting point: 215 to 222 °C
//
mol: O=C(Nc1nc(Cc2ccccc2)no1)c1ccc(O[C@H]2CC[C@@H](C(=O)O)CC2)nc1
melting point: 205 to 210 °C
//
mol: CC(C)(c1ccccc1)c1noc(NC(=O)c2ccc(O[C@H]3CC[C@@H](C(=O)O)CC3)cc2)n1
melting point: 250 to 255 °C
//
mol: O=C(Nc1ccc(Nc2ccccc2)nn1)c1ccc(O[C@H]2CC[C@@H](C(=O)O)CC2)cc1
melting point: 259 to 261 °C

###

Listed here are compounds together with their documented melting point.

compound: O=C(Nc1nc(Cc2ccccc2)no1)c1ccc(C2CCC(C3CC3C(=O)O)CC2)cc1 (centres unmarked)
melting point: 187 °C

compound: O=C(O)CC[C@H]1CC[C@H](c2ccc(C(=O)Nc3nc(Cc4ccccc4)no3)cc2)CC1
melting point: 193 °C

compound: O=C(O)/C=C/[C@H]1CC[C@H](c2ccc(C(=O)Nc3nc(Cc4ccccc4)no3)cc2)CC1
melting point: 210 °C

compound: O=C(Nc1nc(COc2ccccc2)no1)c1ccc(O[C@H]2CC[C@@H](C(=O)O)CC2)cc1
melting point: 210 to 212 °C

compound: COc1ccc(-c2ccc(NC(=O)c3ccc(O[C@H]4CC[C@@H](C(=O)O)CC4)cc3)nn2)cc1
melting point: 319 to 322 °C

###

Tested on: triglyceride biosynthesis in Chang liver cells
Assay: Inhibition of triglyceride biosynthesis in Chang liver cells ([14C] glycerol incorporation)
Conditions: read-out: inhibitory activity on triglyceride biosynthesis, concentration that inhibits 50% of the activity
pIC50: −log10 of the molar value.
parameterMeasured: pIC50

molecule: O=C(Nc1nc(COc2ccccc2)no1)c1ccc(O[C@H]2CC[C@@H](C(=O)O)CC2)cc1 [Compound 8]
numericValue: 6.50

###

Target: DGAT-1 enzyme (Homo sapiens, UniProt O75907)
Sequence (O75907 1-488): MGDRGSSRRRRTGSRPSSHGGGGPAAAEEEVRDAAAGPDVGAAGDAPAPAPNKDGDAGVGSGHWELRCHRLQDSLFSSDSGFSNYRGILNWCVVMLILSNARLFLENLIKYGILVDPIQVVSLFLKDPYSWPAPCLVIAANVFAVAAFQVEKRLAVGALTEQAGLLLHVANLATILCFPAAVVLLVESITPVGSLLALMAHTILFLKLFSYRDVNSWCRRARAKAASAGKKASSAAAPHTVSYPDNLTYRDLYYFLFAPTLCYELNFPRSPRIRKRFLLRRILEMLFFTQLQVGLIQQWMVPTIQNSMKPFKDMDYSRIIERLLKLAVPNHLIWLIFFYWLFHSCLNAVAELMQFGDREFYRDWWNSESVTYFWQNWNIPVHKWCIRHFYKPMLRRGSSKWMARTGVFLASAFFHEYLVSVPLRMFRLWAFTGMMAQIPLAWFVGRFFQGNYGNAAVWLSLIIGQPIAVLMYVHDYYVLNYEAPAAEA
Experiment: DGAT-1 enzyme inhibition, phase partitioning assay (PPA), 96-well
Conditions: recombinant DGAT-1 produced in Sf9 insect cells; 1,2-di(cis-9-octadecenoyl)-sn-glycerol and octanoylCoA; read-out: IC50, concentration that inhibits 50% of the activity of DGAT-1
Protocol: The recombinant DGAT-1 protein was produced in Sf9 insect cells transfected with a baculovirus. The reaction was carried out by incubating the enzyme in the presence of 1,2-di(cis-9-octadecenoyl)-sn-glycerol and octanoylCoA. The amount of triacylglycerol formed during the reaction is measured. […] The radioactivity is measured using a MicroBeta counter (Perkin Elmer).

molecule: O=C(Nc1ccc(Nc2ccccc2)nn1)c1ccc(O[C@H]2CC[C@@H](C(=O)O)CC2)cc1
targetDesc: DGAT-1 enzyme (Homo sapiens, UniProt O75907)
IC50 [µM]: 5.91

molecule: O=C(Nc1ccc(NC2CCCC2)nn1)c1ccc(O[C@H]2CC[C@@H](C(=O)O)CC2)cc1
targetDesc: DGAT-1 enzyme (Homo sapiens, UniProt O75907)
IC50 [µM]: 0.051

molecule: COc1ccc(-c2ccc(NC(=O)c3ccc(O[C@H]4CC[C@@H](C(=O)O)CC4)cc3)nn2)cc1
targetDesc: DGAT-1 enzyme (Homo sapiens, UniProt O75907)
IC50 [µM]: 7.18

molecule: O=C(O)CC1CCC(c2ccc(C(=O)Nc3ccc(Cc4ccccc4)nn3)cc2)CC1 (stereo not shown)
targetDesc: DGAT-1 enzyme (Homo sapiens, UniProt O75907)
IC50 [µM]: 0.89
